target: CYP2C19 (Homo sapiens); test: Vivid CYP450 fluorescence assay, reversible inhibition
Sequence (P33261 whole entry): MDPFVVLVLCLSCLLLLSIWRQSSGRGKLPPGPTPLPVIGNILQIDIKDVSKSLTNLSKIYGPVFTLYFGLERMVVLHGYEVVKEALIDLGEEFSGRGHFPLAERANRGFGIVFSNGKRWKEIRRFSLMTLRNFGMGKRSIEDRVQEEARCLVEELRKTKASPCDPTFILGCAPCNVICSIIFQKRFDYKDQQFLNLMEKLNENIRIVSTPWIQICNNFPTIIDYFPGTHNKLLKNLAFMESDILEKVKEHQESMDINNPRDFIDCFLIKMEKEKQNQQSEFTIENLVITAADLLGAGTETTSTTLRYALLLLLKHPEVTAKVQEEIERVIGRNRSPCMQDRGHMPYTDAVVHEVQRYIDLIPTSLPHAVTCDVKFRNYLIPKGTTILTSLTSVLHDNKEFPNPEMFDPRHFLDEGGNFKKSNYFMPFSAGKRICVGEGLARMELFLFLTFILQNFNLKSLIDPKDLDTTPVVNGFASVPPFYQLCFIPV
MEASURED_PROPERTY: IC50 (µM)
I only need the number, in µM, no unit after it.

Query: Record request: IC50 value, item "C[C@H](N)C(=O)c1ccccc1"
Result: 118

###

target: CYP2B6 (Homo sapiens, UniProt P20813); experiment: Vivid CYP450 fluorescence assay, reversible inhibition
Sequence (P20813 whole entry): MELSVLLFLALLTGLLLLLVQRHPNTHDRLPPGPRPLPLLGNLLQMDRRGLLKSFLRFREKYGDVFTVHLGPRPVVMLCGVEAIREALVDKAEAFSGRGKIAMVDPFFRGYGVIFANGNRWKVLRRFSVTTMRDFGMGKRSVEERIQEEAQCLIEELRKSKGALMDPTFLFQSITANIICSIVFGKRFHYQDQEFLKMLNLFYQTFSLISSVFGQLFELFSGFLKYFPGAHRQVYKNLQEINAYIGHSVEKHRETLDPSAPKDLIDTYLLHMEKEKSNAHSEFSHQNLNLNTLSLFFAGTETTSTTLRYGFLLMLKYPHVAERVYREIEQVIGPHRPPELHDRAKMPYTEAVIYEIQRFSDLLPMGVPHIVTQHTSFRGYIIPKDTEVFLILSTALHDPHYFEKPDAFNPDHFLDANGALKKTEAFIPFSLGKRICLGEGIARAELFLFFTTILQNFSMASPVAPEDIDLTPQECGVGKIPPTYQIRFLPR
MEASURED_PROPERTY: IC50 (µM)
Give the number; µM is assumed, so skip it.

Query: Which measured IC50 value corresponds to C[C@H](N)C(=O)c1ccccc1 [Cathinone] ?
Result: 165

###

Target: CYP2C19 (Homo sapiens)
Experiment: Time-dependent inhibition (IC50 shift, NADPH pre-incubation)
Format: biochemical
Set-up: purchased Life Technologies
Experimental: The procedure followed was similar to that used for screening of CYP reversible inhibition as mentioned above but with slight modifications. The master premix was added with NADP^+ to produce NADPH before the pre-incubation. The mixture was incubated for 30 min with shaking under similar range of concentrations of cathinone as mentioned above for IC50 determination. […] The IC50 shift was derived by calculating ratios of IC50 obtained from pre-incubation with and without NADPH. […]
MEASURED_PROPERTY: IC50 (µM)
Value expressed in µM; do not type the unit.

Query: Param item = "C[C@H](N)C(=O)c1ccccc1" ; retrieve measured IC50.
Result: 220

Where do these numbers come from? They come from paper PMC9742833.
